- Target or test system: T1, recombinant human SDF-1α (Peprotech) (human, UniProt P48061 22-89)
- T1 construct: Bought protein (Peprotech, cat. 300-28A); also called rh SDF-1α; Stromal cell-Derived Factor-1
- T1 sequence (P48061 22-89 limits assumed): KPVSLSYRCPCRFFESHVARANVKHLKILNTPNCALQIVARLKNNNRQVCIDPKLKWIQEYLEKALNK
- Assay details: SPR (Biacore), antibody amine-coupled to CM5 chip, SDF-1 flowed at 5-40 nM right after dilution to maximize the dimer population, 1:1 Langmuir fit
Test readout: koff (s⁻¹)
Give the value, in units of s⁻¹, as a plain number.

Example results:
>  <Binder>
2A5 human monoclonal antibody (antibody, V domains shown, Whole human monoclonal antibody with kappa light chain (VK L18), from a HuMAb Mouse; also called Z2/A5; Z2A5) VH: QVQLVQSGGGLVQPGGSLRLSCAASGFTFSSYWMSWVRQAPGKGLEWVANMNQDGSEKYYVDSVKGRFTISRDNAKNSLYLQMNSLRAEDTAVYYCARDLTGPYYYDYYGMDVWGQGTTVTVSS VL: DIQMIQSPSSLSASVGDRVTITCRASQGISSALAWYQQKPGKAPKLLIYDASSLESGVPSRFSGSGSGTDFTLTISSLQPEDFATYYCQQFNSYPRTFGQGTKVEIK

>  <Test readout>
koff

>  <Recorded measurement>
0.0011

$$$$
>  <Binder>
1C6 human monoclonal antibody (antibody, V domains shown, Whole human monoclonal antibody with kappa light chain (VK L18), from a HuMAb Mouse; also called Z1/C6; mAb Z group antibody) VH: EVQLVESGRGLVQPGGSLRLSCAASGFTFSSYWMSWVRQAPGKGLEWVANMNQDGSEKYYVDSVKGRFTISRDNAKNSLYLQMNSLRAEDTAVYYCARDLTGPYYYDYYGMDVWGQGTTVTVSS VL: AIRMTQSPSSVSASVGDRVTITCRASQGISSALAWYQQTPGKAPKLLIYDASSLESGVPSRFSGSGSGTDFTLTISSLQPEDFATYYCQQFNSYPRTFGQGTKVEIK

>  <Test readout>
koff

>  <Recorded measurement>
0.00064

$$$$
>  <Binder>
1H2 human monoclonal antibody (antibody, V domains shown, Whole human monoclonal antibody with kappa light chain (VK L18), from a KM Mouse; also called B1/H2; B1H2) VH: QVQLVQSGAEVKKPGASVKVSCKVSGYTFTKLSVHWVRQAPGKGLEWMGSFDPEDGETIYSQRFQGRVTMTEDTSTDTAYMELSSLRSEDTAVYYCATEGQWLVAYYGMDVWGQGTMVTVSS VL: EIVLTQSPSSLSASVGDRVTITCRASQGISSALAWYQQKPGKAPKLLIYDASSLESGVPSRFSGSGSGTDFTLTISSLQPEDFATYYCQQFNSYPLTFGGGTKVEIK

>  <Test readout>
koff

>  <Recorded measurement>
0.00084

$$$$

IN: Given the binder 1D3 human monoclonal antibody (antibody, V domains shown, Whole human monoclonal antibody with kappa light chain (VK L18), from a KM Mouse; also called B1/D3; mAb B group antibody) VH: EVQLVQSGAEVKKPGASVKVSCKVSGYTLTKLSVHWVRQAPGKGLEWMGSFDPEDGETIYSQRFQGRVTMTEDTSTDTAYMELTSLRSEDTAVYYCATEGQWLVAYYGMDVWGQGTTVTVSS VL: EIVLTQSPSSLSASVGDRVTITCRASQGISSALAWYQQKPGKAPKLLIYDASSLESGVPSRFSGSGSGTDFTLTISSLQPEDFATYYCQQFNSYPLTFGGGTKVEIK , what is its reported koff?
OUT: 0.0005
